tested on: quackgrass; assay: Test F preemergence test; assay type: in vivo, Elytrigia repens; details: Preemergence; 16 g ai/ha; scale 0 to 100
test-readout: Plant response rating, Quackgrass
Just the number, please, no unit after it.

**Query** For the molecule Cn1nc(C(F)(F)F)c(C[S+]([O-])c2cccc[n+]2[O-])c1OCC(F)(F)F (racemic) , report Plant response rating, Quackgrass.
**Result** 0

**Query** For the molecule `Cc1cc[n+]([O-])c(S(=O)(=O)Cc2c(C(F)(F)F)nn(C)c2OC(F)F)c1` , report Plant response rating, Quackgrass.
**Result** 0

More entries:
**Query** For the molecule `Cn1nc(C(F)(F)F)c(CS(=O)(=O)c2cccc[n+]2[O-])c1OC(F)F` , report Plant response rating, Quackgrass.
**Result** 0

**Query** For the molecule Cc1cc[n+]([O-])c([S+]([O-])Cc2c(C(F)(F)F)nn(C)c2OC(F)F)c1 (stereo not shown) , report Plant response rating, Quackgrass.
**Result** 35

---

system: wheat; assay: Test A pre-/postemergence greenhouse test; type: in vivo, Triticum aestivum; settings: Postemergence, 125 g ai/ha; 0 to 100 scale where 0 is no effect and 100 is complete control
Entries and their Plant response rating, Wheat values follow.
Just the number, please, no unit after it.

The examples below pair each entry with its known result.
**Query** For the molecule Cn1nc(C(F)(F)F)c(CS(=O)(=O)c2cc(C(C)(C)C)cc[n+]2[O-])c1OCC(F)(F)F [Compound 72] , report Plant response rating, Wheat.
**Result** 0

**Query** For the molecule CCc1cc[n+]([O-])c([S+]([O-])Cc2c(C(F)(F)F)nn(C)c2OC(F)F)c1 (centres unmarked) [Compound 101] , report Plant response rating, Wheat.
**Result** 50

**Query** For the molecule CCCc1cc[n+]([O-])c(S(=O)(=O)Cc2c(C(F)(F)F)nn(C)c2OC(F)F)c1 [Compound 117] , report Plant response rating, Wheat.
**Result** 40

**Query** For the molecule Cc1cc[n+]([O-])c([S+]([O-])Cc2c(C(F)(F)F)nn(C)c2OCC(F)F)c1 (centres unmarked) [Compound 86] , report Plant response rating, Wheat.
**Result** 50

More entries:
**Query** For the molecule CCCc1cc[n+]([O-])c([S+]([O-])Cc2c(C(F)(F)F)nn(C)c2OC(F)F)c1 (centres unmarked) [Compound 116] , report Plant response rating, Wheat.
**Result** 50

**Query** For the molecule CCn1nc(C(F)(F)F)c(C[S+]([O-])c2cccc[n+]2[O-])c1OCC(F)(F)F (racemic) [Compound 65] , report Plant response rating, Wheat.
**Result** 60

**Query** For the molecule Cn1nc(C(F)(F)F)c(C[S+]([O-])c2cccc[n+]2[O-])c1OCC(F)(F)C(F)(F)F (centres unmarked) [Compound 78] , report Plant response rating, Wheat.
**Result** 30

**Query** For the molecule CCc1cc[n+]([O-])c(S(=O)(=O)Cc2c(C(F)(F)F)nn(C)c2OC(F)F)c1 [Compound 102] , report Plant response rating, Wheat.
**Result** 50

---

Entries and their Bromegrass, Downy plant response rating values follow.
system: downy brome; assay: Test C pre-/postemergence test; assay type: in vivo, Bromus tectorum; settings: 62 g ai/ha, Preemergence; scale 0 to 100

The examples below pair each entry with its known result.
**Query** For the molecule `Cn1nc(C(F)(F)F)c(CS(=O)(=O)c2cccc[n+]2[O-])c1OCC(F)F` , report Bromegrass, Downy plant response rating.
**Result** 40

**Query** For the molecule CC(Oc1c(CS(=O)(=O)c2cccc[n+]2[O-])c(C(F)(F)F)nn1C)C(F)(F)F (centres unmarked) , report Bromegrass, Downy plant response rating.
**Result** 60

**Query** For the molecule Cn1nc(C(F)(F)F)c(C[S+]([O-])c2ccc(F)c[n+]2[O-])c1OCC(F)(F)F (centres unmarked) , report Bromegrass, Downy plant response rating.
**Result** 100

**Query** For the molecule Cc1cc[n+]([O-])c(S(=O)(=O)C(Cl)c2c(C(F)(F)F)nn(C)c2Cl)c1 (racemic) , report Bromegrass, Downy plant response rating.
**Result** 0

**Query** For the molecule `Cc1cc[n+]([O-])c(S(=O)(=O)Cc2c(C(F)(F)F)nn(C)c2Cl)c1` , report Bromegrass, Downy plant response rating.
**Result** 0

**Query** For the molecule CCn1nc(C(F)(F)F)c(C[S+]([O-])c2cccc[n+]2[O-])c1OCC(F)(F)F (racemic) , report Bromegrass, Downy plant response rating.
**Result** 100

**Query** For the molecule Cc1cc([S+]([O-])Cc2c(C(F)(F)F)nn(C)c2OCC(F)(F)F)[n+]([O-])cc1Cl (centres unmarked) , report Bromegrass, Downy plant response rating.
**Result** 80

More entries:
**Query** For the molecule `Cn1nc(OC(F)F)c(CS(=O)(=O)c2cccc[n+]2[O-])c1C(F)(F)F` , report Bromegrass, Downy plant response rating.
**Result** 40
